assay: Example 6 pharmacokinetics assay for PKPD study (plasma, tumor, liver); assay type: in vivo, BALB/c nude mice; settings: mouse, plasma, po; 100 mg/kg, single dose; 1 h; read-out: Concentration in Plasma (mean ± SEM)
measured attribute: concentration at 1 h (ng/mL)

* CC(C)(C)c1nc(-c2cccc(NS(=O)(=O)c3c(F)cccc3F)c2F)c(-c2ccnc(N)n2)s1 [Dabrafenib, dabrafenib, reference compound] | 276

----------
assay: Pharmacokinetics in female BALB/c nude mice bearing A375 xenografts, 1 day dosing (PK and PD study): plasma, tumor and brain concentrations, AUC; assay type: in vivo; settings: mouse, brain, po, 1.5 mg/kg, Compound 141; 1.5 mg/kg p.o. BID × 1 day; post 2nd dose; 2 h; read-out: Mean Concentration in Brain ± SEM
measured attribute: concentration at 2 h (ng/g)

• CCN(C)S(=O)(=O)Nc1ccc(F)c(Oc2ccc3ncn(C4CC5(CCN(C6CC7(C6)CN(c6cc8c(cc6F)c(N6CCC(=O)NC6=O)nn8C)C7)CC5)C4)c(=O)c3c2)c1C#N (stereo not shown) [Compound 141] = 39.3

----------
Experiment: Pharmacokinetics after 21 days dosing in the efficacy study (plasma, tumor and brain concentrations; plasma AUC at steady state), Example 14
Assay type: in vivo, female BALB/c nude mice
Settings: mouse, plasma, po; 100 mg/kg p.o. QD × 21 days; read-out: Plasma AUC at steady state (Day 21), Average
Description: Agents were tested in the A375 human melanoma xenografts. […] Dabrafenib, Compound 26 and Compound 141 in female BALB/c nude mice plasma (K2-EDTA), tumor and brain homogenate were analyzed by LC-MS/MS (Triple Quad 6500+ Low Mass). […]
measured attribute: AUC

- CC(C)(C)c1nc(-c2cccc(NS(=O)(=O)c3c(F)cccc3F)c2F)c(-c2ccnc(N)n2)s1 [Dabrafenib, dabrafenib, reference compound]: 18100 ng·h/mL

----------
assay: Example 7 pharmacokinetics assay for efficacy study (plasma, liver); assay type: in vivo, BALB/c nude mice; settings: mouse, plasma, po, 100 mg/kg, p.o., QD × 14 days, read-out: Concentration in Plasma (mean ± SEM)
measured attribute: concentration at 6 h

• CC(C)(C)c1nc(-c2cccc(NS(=O)(=O)c3c(F)cccc3F)c2F)c(-c2ccnc(N)n2)s1 [Dabrafenib, dabrafenib, reference compound] = 80.5 ng/mL

----------
test system: A375-NRAS^Q61K cells; assay: CTGlo Cell Viability Assay, A375-NRAS^Q61K (A375.11) cells, 96 hours; type: cell-based, human; details: Homo sapiens, 96 h, A375.11 (A375-NRAS^Q61K) cells
measured attribute: GI50

• Cn1nc(N2CCC(=O)NC2=O)c2cc(F)c(N3CC4(CC(N5CCC6(CC5)C[C@@H](n5cnc7ccc(Oc8c(F)ccc(NS(=O)(=O)N9CC[C@@H](F)C9)c8C#N)cc7c5=O)CO6)C4)C3)cc21 = 1000 to 10000 nM
• Cn1nc(N2CCC(=O)NC2=O)c2cc(F)c(N3CC4(CC(N5CCC6(CC5)C[C@@H](n5cnc7ccc(Oc8c(F)ccc(NS(=O)(=O)N9CCC%10(CC%10)C9)c8C#N)cc7c5=O)CO6)C4)C3)cc21 = < 1000 nM
• CCN(C)S(=O)(=O)Nc1ccc(F)c(Oc2ccc3ncn(C4CC5(CCN([C@H]6C[C@@H](c7cc8c(cc7F)c(N7CCC(=O)NC7=O)nn8C)C6)CC5)C4)c(=O)c3c2)c1C#N = 1000 to 10000 nM
• CCN(C)S(=O)(=O)Nc1ccc(F)c(Oc2ccc3ncn([C@H]4COC5(CCN(C6CC7(C6)CN(c6cc8c(cc6F)c(N6CCC(=O)NC6=O)nn8C)C7)CC5)C4)c(=O)c3c2)c1F = 1000 to 10000 nM
• CCN(C)S(=O)(=O)Nc1ccc(F)c(Oc2ccc3ncn(CC4(F)CCN(C5CCC(c6cc7c(cc6F)c(N6CCC(=O)NC6=O)nn7C)CC5)CC4)c(=O)c3c2)c1C#N (single isomer, unassigned) = 1000 to 10000 nM

Entry source: patent US20260297060A1
